The reported numbers originate from patent US20190352276A1.

test: Permeability through the monolayer of Caco-2 cells; format: in vitro ADME; settings: human, A→B, 2 h at 37° C.
# binning rule on Papp A→B at 2 h, 10 μM: low (below 8 ×10⁻⁶ cm/s), mid (8 ×10⁻⁶ cm/s to below 20 ×10⁻⁶ cm/s), high (20 ×10⁻⁶ cm/s or more)

C=CC(=O)N1CCC[C@@H](n2nc(-c3ccc(Oc4cccnc4C#N)cc3)c3cncc(F)c32)C1    high
C=CC(=O)N1CCC[C@@H](n2nc(-c3ccc(C(=O)Nc4ccccn4)cc3)c3c(N)ncc(Cl)c32)C1    low
C=CC(=O)N1CCC[C@@H](n2nc(-c3cnc(C(=O)Nc4ccccn4)nc3)c3cncc(Cl)c32)C1    mid
C=CC(=O)N1CCC[C@@H](n2nc(-c3ccc(Oc4ccncc4C#N)cc3)c3c(N)ncc(Cl)c32)C1    low
C=CC(=O)N1CCC[C@@H](n2nc(-c3cnc(C(=O)Nc4cc(C(F)(F)CC)ccn4)nc3)c3cncc(Cl)c32)C1    low

Exam item: Place this compound in its band: "C=CC(=O)N1CCC[C@@H](n2nc(-c3ccc(C(=O)Nc4ncccc4F)cc3)c3cncc(Cl)c32)C1"
Marked response: mid

Exam item: Place this compound in its band: "C=CC(=O)N1CCC[C@@H](n2nc(-c3ccc(Oc4ccncc4C#N)cc3)c3cncc(C#N)c32)C1"
Marked response: mid

Exam item: Place this compound in its band: "C=CC(=O)N1CCC[C@@H](n2nc(-c3ccc(Oc4ccncc4)cc3)c3cncc(C#N)c32)C1"
Marked response: mid

Exam item: Place this compound in its band: "C=CC(=O)N1CCC[C@@H](n2nc(-c3cnc(C(=O)Nc4cc(C(F)(F)CCC)ccn4)nc3)c3cncc(Cl)c32)C1"
Marked response: mid

Exam item: Place this compound in its band: "C=CC(=O)N1CCC[C@@H](n2nc(-c3ccc(Oc4ccncc4C#N)cc3)c3cncc(F)c32)C1"
Marked response: high

Exam item: Place this compound in its band: "C=CC(=O)N1CCC[C@@H](n2nc(-c3ccc(Oc4cccnc4C#N)cc3)c3c(N)ncc(Cl)c32)C1"
Marked response: low

====

target: recombinant Btk kinase enzyme (Homo sapiens, UniProt Q06187); construct: purchased SignalChem B10-10H; assay: In vitro inhibition of Btk kinase activity (ADP-Glo); type: biochemical; conditions: Table 11; BTK kinase; read-out: IC50 kinase
Sequence (Q06187 whole entry): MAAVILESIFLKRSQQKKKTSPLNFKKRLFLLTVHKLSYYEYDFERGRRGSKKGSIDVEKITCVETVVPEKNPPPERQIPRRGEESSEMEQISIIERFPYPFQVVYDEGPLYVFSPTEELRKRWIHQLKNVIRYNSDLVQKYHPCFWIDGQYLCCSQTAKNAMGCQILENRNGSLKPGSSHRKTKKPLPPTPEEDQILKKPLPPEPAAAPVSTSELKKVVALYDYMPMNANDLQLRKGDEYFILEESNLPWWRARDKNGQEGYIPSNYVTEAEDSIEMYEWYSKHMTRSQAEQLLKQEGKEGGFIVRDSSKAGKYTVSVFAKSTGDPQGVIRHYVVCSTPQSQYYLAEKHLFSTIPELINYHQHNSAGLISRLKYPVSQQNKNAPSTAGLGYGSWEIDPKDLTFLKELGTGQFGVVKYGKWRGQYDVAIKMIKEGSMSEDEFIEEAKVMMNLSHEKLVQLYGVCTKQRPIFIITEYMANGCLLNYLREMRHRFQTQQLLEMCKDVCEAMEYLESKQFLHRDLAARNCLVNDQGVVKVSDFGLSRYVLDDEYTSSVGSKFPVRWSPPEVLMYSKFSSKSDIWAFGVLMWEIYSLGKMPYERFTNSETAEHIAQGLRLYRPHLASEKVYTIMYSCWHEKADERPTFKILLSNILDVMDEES
VALUE KIND: IC50 (nM)
Field format: number, assumed nM, no unit text.

Exam item: Given C=CC(=O)N1CCC[C@@H](n2nc(-c3ccc(Oc4ccncc4)cc3)c3cncc(C#N)c32)C1 [BCD-BTK-123] , state its recorded IC50.
Marked response: 1510

====

IC50 reference
system: Z-138 (mantle cell lymphoma); experiment: Antiproliferative activity, Z-138 cells (Alamar Blue); format: cell-based; settings: Homo sapiens, Table 10, 72 h, average of several tests
Field format: number, assumed µM, no unit text.

Exam item: Given "C=CC(=O)N1CC[C@@H](Cn2nc(-c3ccc(C(=O)Nc4ccccn4)cc3)c3cncc(Cl)c32)C1" , state its recorded IC50.
Marked response: 115

Exam item: Given "C=CC(=O)N1CCC[C@@H](n2nc(-c3ccc(Oc4cncc(C(N)=O)c4)cc3)c3cncc(Cl)c32)C1" , state its recorded IC50.
Marked response: 26.3

Exam item: Given "C=CC(=O)N1CCC[C@@H](n2nc(-c3ccc(Oc4ccncc4C(N)=O)cc3)c3cncc(F)c32)C1" , state its recorded IC50.
Marked response: 23.7

Exam item: Given "CC#CC(=O)N1CCC[C@@H](n2nc(-c3ccc(C(=O)Nc4ccccn4)cc3)c3cncc(Cl)c32)C1" , state its recorded IC50.
Marked response: 8.29

====

assay: Chemical stability in artificial gastric fluid (SGF without enzymes); conditions: 10 μM in SGF without enzymes, pH=1.4, 37° C.
VALUE KIND: Amount of substance in the sample in % (chemical stability) (%)
Field format: number, assumed %, no unit text.

Answered examples (5):
CC#CC(=O)N1CC[C@H](n2nc(-c3ccc(Oc4ccncc4)cc3)c3cncc(Cl)c32)C1    99.1
C=CC(=O)N1CCC[C@@H](n2nc(-c3ccc(C(=O)Nc4cc(C(C)(F)F)ccn4)cc3)c3cncc(C#N)c32)C1    100
C=CC(=O)N1CCC[C@@H](n2nc(-c3ccc(Oc4ccncc4)cc3)c3cncc(C#N)c32)C1    97
C=CC(=O)N1CCC[C@@H](n2nc(-c3ccc(-n4ccc(=O)cc4)cc3)c3cncc(Cl)c32)C1    97.7
C=CC(=O)N1CCC[C@@H](n2nc(-c3ccc(C(=O)Nc4ccccn4)cc3)c3c(N)nccc32)C1    100

Exam item: Given "C=CC(=O)N1CCC[C@@H](n2nc(-c3cnc(-n4ccc(=O)c(C(N)=O)c4)nc3)c3cncc(Cl)c32)C1" , state its recorded Amount of substance in the sample in % (chemical stability).
Marked response: 100

====

molecular target: recombinant Btk kinase enzyme (Homo sapiens); construct: purchased SignalChem B10-10H; experiment: In vitro inhibition of Btk kinase activity (ADP-Glo); format: biochemical; settings: Table 9 kinase panel; read-out: IC50 kinase BTK
IC50 reference
Field format: number, assumed nM, no unit text.

C=CC(=O)N1CCC[C@@H](n2nc(-c3ccc(Oc4ccncc4)cc3)c3c(N)ncc(Cl)c32)C1    0.85
C=CC(=O)N1CCC[C@@H](n2nc(-c3ccc(Oc4ccncc4)cc3)c3cncc(Cl)c32)C1    109

Exam item: Given "C=CC(=O)N1CCC[C@@H](n2nc(-c3ccc(Oc4ccncc4)cc3)c3c(N)ncc(C#N)c32)C1" , state its recorded IC50.
Marked response: 1.16

====

tested on: HepG2 cells (hepatocellular carcinoma); test: General cytotoxicity on HepG2 cells (CC50; therapeutic index CC50 HepG2/IC50 Mino); assay type: cell-based; details: Table 10; therapeutic index
# binning rule on CC50 (HepG2)/IC50 (Mino): bin 0 (below 3), bin 1 (3 to below 5), bin 2 (5 or more)

Solved entries:
C=CC(=O)N1CCC[C@@H](n2nc(-c3ccc(C(=O)Nc4cc(C(F)(F)CCC)ccn4)cc3)c3cncc(C#N)c32)C1    bin 2
C=CC(=O)N1CCC[C@@H](n2nc(-c3ccc(Oc4ccncc4C(N)=O)cc3)c3cncc(Cl)c32)C1    bin 1
C=CC(=O)N1CCC[C@@H](n2nc(-c3ccc(-n4ccc(=O)cc4)cc3)c3cc(N)c(C)nc32)C1    bin 2
C=CC(=O)N1CCC[C@@H](n2nc(-c3ccc(C(=O)Nc4ccccn4)cc3)c3c(N)ncc(OC)c32)C1    bin 2
CC#CC(=O)N1CC(n2nc(-c3ccc(Oc4ccncc4)cc3)c3cncc(Cl)c32)C1    bin 0
C=CC(=O)N1CCC[C@@H](n2nc(-c3ccc(Oc4ccncc4)cc3)c3c(N)nccc32)C1    bin 0
C=CC(=O)N1CCC[C@@H](n2nc(-c3ccc(Oc4ccncc4)cc3)c3cncc(F)c32)C1    bin 2
CC#CC(=O)N1CC(Cn2nc(-c3ccc(Oc4ccncc4)cc3)c3cncc(Cl)c32)C1    bin 0
C=CC(=O)N1CCC[C@@H](n2nc(-c3ccc(-n4ccc(=O)c(C#N)c4)cc3)c3cncc(Cl)c32)C1    bin 2
C=CC(=O)N1CCC[C@@H](n2nc(-c3ccc(C(=O)Nc4ccccn4)cc3)c3c(N)ncc(C#N)c32)C1    bin 1

Exam item: Place this compound in its band: "C=CC(=O)N1CCC[C@@H](n2nc(-c3ccc(Oc4cccnc4C#N)cc3)c3cncc(F)c32)C1"
Marked response: bin 2

Exam item: Place this compound in its band: "C=CC(=O)N1CCC[C@@H](n2nc(-c3cnc(C(=O)Nc4cccc(F)n4)nc3)c3cncc(Cl)c32)C1"
Marked response: bin 0

Exam item: Place this compound in its band: "C=CC(=O)N1CCC[C@@H](n2nc(-c3ccc(C(=O)Nc4ncccc4F)cc3)c3c(N)ncc(Cl)c32)C1"
Marked response: bin 1

Exam item: Place this compound in its band: "C=CC(=O)N1CCC[C@@H](n2nc(-c3ccc(C(=O)Nc4cc(C(F)(F)F)ccn4)cc3)c3c(N)ncc(Cl)c32)C1"
Marked response: bin 2

====

Molecular target: TEC (Homo sapiens)
Sequence (P42680 1-631): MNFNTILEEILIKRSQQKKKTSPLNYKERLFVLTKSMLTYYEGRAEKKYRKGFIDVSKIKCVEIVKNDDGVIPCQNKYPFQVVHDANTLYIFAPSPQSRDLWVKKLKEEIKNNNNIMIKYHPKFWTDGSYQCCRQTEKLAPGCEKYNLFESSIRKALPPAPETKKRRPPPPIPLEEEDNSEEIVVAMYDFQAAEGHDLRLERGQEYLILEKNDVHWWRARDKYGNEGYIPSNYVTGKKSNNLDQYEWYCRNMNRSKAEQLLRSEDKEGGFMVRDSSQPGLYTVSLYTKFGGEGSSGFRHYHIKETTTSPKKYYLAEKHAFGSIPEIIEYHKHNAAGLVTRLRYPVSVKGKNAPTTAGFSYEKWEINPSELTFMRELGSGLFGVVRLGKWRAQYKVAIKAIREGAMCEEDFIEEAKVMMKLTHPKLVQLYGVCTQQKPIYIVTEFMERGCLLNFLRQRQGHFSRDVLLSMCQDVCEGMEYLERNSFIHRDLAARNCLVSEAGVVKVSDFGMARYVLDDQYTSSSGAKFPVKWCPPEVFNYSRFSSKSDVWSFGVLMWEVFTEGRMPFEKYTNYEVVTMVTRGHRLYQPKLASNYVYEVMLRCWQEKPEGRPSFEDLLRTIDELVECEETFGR
VALUE KIND: IC50 (nM)
Field format: number, assumed nM, no unit text.

C=CC(=O)N1CCC[C@@H](n2nc(-c3ccc(C(=O)Nc4ccccn4)cc3)c3c(N)ncc(OC)c32)C1    3.81

Here's the next entry for you.
Exam item: Given "C=CC(=O)N1CCC[C@@H](n2nc(-c3cnc(C(=O)Nc4cc(C(F)(F)CCC)ccn4)nc3)c3cncc(Cl)c32)C1" , state its recorded IC50.
Marked response: 77.8
